Hey, just so you know, these numbers are from patent US11993594B2.

# System: LPS induced IL-23 (p19/p40) in DC cells
# procedure-text: IL23-p19 ELISA, dendritic (DC) cells differentiated from human PBMC, LPS stimulated
# Format: cell-based
# experimental-setup: Table 2, IFNγ 50 ng/ml, LPS 1 μg/ml, 18 hours, 10 pt
endpoint-name: pEC50
Interpret pEC50 as the negative base-10 log of the concentration measured in mol/L.

Worked cases, pEC50 given:
compound: O=C(Nc1cn([C@H]2CC[C@H](N3CCOCC3)CC2)nc1-c1cccc(C(F)F)n1)c1coc(-c2cn[nH]c2)n1 [Compound I-4]
pEC50: 7.70
//
compound: CCO[C@H]1CC[C@H](n2cc(NC(=O)c3coc(-c4cn[nH]c4)n3)c(-c3nc(F)ccc3F)n2)CC1 [Compound I-9]
pEC50: 6.77
//
compound: C[C@@H]1CN(C2CCC(n3cc(NC(=O)c4coc(-c5cn[nH]c5)n4)c(-c4cccc(C(F)F)n4)n3)CC2)C[C@H](C)O1 (stereo partly shown) [Compound I-5]
pEC50: 7.99

Please look at the following compound next.
The recorded pEC50 for CCO[C@H]1CC[C@H](n2cc(NC(=O)c3coc(-c4cn[nH]c4)n3)c(-c3ncc(F)cc3F)n2)CC1 [Compound I-13] is 6.84

----------
Let's look at some compounds and their measured EC50.
# Tested on: LPS Induced IL23p19 in THP-1 Cells
# procedure-text: LPS Induced IL23p19 in THP-1 Cells (with IFNγ Primed) Assay
# Assay type: cell-based, human
# experimental-setup: Homo sapiens; Table 1; THP-1 cells primed with IFNγ 50 ng/mL, LPS 1 ug/mL, 18 hours, 10 pt; read-out: IL23-p19 ELISA, THP1-IFNγ, LPS, 10 pt EC50
Structures can show the parent of a compound that is named as a salt.
Field: numeric (nM). Do not append units.

Worked cases, EC50 given:
compound: O=C(Nc1cn([C@H]2CC[C@H](N3CCOCC3)CC2)nc1-c1nc(F)ccc1F)c1coc(-c2cn[nH]c2)n1
EC50, nM: 73.3
//
compound: O=C(Nc1cn(CCOCC(F)(F)F)nc1-c1ccccn1)c1coc(-c2cn[nH]c2)n1
EC50, nM: 85.3

Please look at the following compound next.
The recorded EC50 for O=C(Nc1cn(C2CCC(N3CCOCC3)CC2)nc1-c1cnccn1)c1coc(-c2c[nH]nc2F)n1 (stereo not drawn) [Compound I-35, formic acid salt] is 78
